# ASSAYED_SYSTEM: mu opioid receptor (Rattus norvegicus)
# Construct: the forebrains were homogenized in Tris buffer in a Teflon®-glass homogenizer; from tissue; host or cells: forebrain of male Wistar rats, particulate (membrane) preparation
# Sequence (P33535 whole entry): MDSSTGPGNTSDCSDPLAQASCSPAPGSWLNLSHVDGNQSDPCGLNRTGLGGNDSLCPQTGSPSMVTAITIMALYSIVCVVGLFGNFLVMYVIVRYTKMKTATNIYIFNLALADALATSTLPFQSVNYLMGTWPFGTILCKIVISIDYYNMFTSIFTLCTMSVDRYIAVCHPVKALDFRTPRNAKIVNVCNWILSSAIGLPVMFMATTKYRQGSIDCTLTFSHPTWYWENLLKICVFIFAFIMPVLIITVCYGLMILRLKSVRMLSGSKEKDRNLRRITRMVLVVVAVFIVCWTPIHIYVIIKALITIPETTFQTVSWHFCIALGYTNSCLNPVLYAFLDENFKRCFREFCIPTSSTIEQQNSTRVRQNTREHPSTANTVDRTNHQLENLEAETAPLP
# METHOD_DESCRIPTION: Rat brain mu opioid receptor binding assay
# CONDITION_SET: rat forebrain, [3H]DAMGO ligand; read-out: μ-binding Ki
pKi: −log10 of the molar value.

- MOLECULE: "COc1ccc(Oc2nc(-c3cccc4ccccc34)ncc2NC[C@@H]2CCCN2)cc1 [Cpd 5]"
  READOUT_QUALIFIER: "<"
  pKi: 5.00
- MOLECULE: "COc1ccc(Oc2nc(-c3cccnc3OC)ncc2NC[C@@H]2CCCN2)cc1 [Cpd 26]"
  READOUT_QUALIFIER: "="
  pKi: 5.39
- MOLECULE: "COc1ccc(Oc2nc(-c3cccc4ncccc34)ncc2NC[C@@H]2CCCN2)cc1 [Cpd 16]"
  READOUT_QUALIFIER: "="
  pKi: 5.88
- MOLECULE: "COc1ccc(Oc2nc(-c3cc4ccccc4s3)ncc2NC[C@@H]2CCCN2)cc1 [Cpd 49]"
  READOUT_QUALIFIER: "="
  pKi: 5.45
- MOLECULE: "COc1ccc(Oc2nc(-c3cnc(N(C)C)nc3)ncc2NC[C@@H]2CCCN2)cc1 [Cpd 82]"
  READOUT_QUALIFIER: "="
  pKi: 5.98
- MOLECULE: "COc1ccc(Oc2nc(-c3cnc(N)nc3)ncc2NC[C@@H]2CCCN2)cc1 [Cpd 81]"
  READOUT_QUALIFIER: "="
  pKi: 6.24
- MOLECULE: "COc1ccc(Oc2nc(-c3cccc([N+](=O)[O-])c3)ncc2NC[C@@H]2CCCN2)cc1 [Cpd 29]"
  READOUT_QUALIFIER: "="
  pKi: 5.57
- MOLECULE: "COc1ccccc1Oc1nc(-c2cccnc2)ncc1NC[C@@H]1CCCN1 [Cpd 40]"
  READOUT_QUALIFIER: "="
  pKi: 5.12
- MOLECULE: "Nc1ccc(Oc2nc(-c3cccnc3)ncc2NC[C@@H]2CCCN2)cc1 [Cpd 46]"
  READOUT_QUALIFIER: "="
  pKi: 5.45
- MOLECULE: "c1ccc(Oc2nc(-c3cccnc3)ncc2NC[C@@H]2CCCN2)cc1 [Cpd 14]"
  READOUT_QUALIFIER: "="
  pKi: 5.76
- MOLECULE: "COc1ccc(Oc2nc(-c3cccnc3F)ncc2NC[C@@H]2CCCN2)cc1 [Cpd 24]"
  READOUT_QUALIFIER: "="
  pKi: 5.97

Where do these numbers come from? They come from patent US8513271B2.
